- experimental-protocol: A673 Ewing sarcoma viability loss – cell-based, CellTiter-Glo luminescence, cherry-pick retest, confirmation (AID 720587)
- study-conditions: A673 Ewing sarcoma viability, CellTiter-Glo ATP luminescence, 72 h; at 26 µM (top of the series)
Reported activity change, negative = cytotoxicity values are given for each entry in this list.
// units = %; emit number, no label

// worked examples, activity change, negative = cytotoxicity included
compound: COc1ccc(/C=N/Nc2ccc(C(=O)O)cc2)cc1Br
activity change, negative = cytotoxicity, %: -2.31

compound: CCOc1ccccc1CNC(=O)c1ccc(Sc2ccc(Cl)cc2)c(NC(C)=O)c1
activity change, negative = cytotoxicity, %: -0.342

compound: O=C(CN1C(=O)c2ccccc2S1(=O)=O)c1ccc(F)cc1
activity change, negative = cytotoxicity, %: -6.39

compound: CCOC(=O)Cc1ccc(NC(=O)c2ccccc2Br)cc1
activity change, negative = cytotoxicity, %: -0.788

compound: CN(C)C(=O)c1ccc(-c2ccccc2[C@@H]2[C@@H](CO)N(C(=O)C3CC3)[C@H]2C#N)cc1
activity change, negative = cytotoxicity, %: 0.679

activity change, negative = cytotoxicity lookup needed for O=C(Nc1ccc(OC(=O)N2CCCCC2)cc1)N1CCOCC1 , thanks.
1.28

Can you handle Cc1ccc(C(CC(=O)O)Nc2nc(N3CCOCC3)nc(N3CCOCC3)n2)cc1 (stereo not given) next?
16.9

Can you handle C[C@@H]1CN([C@@H](C)CO)C(=O)Cc2cc(NC(=O)Cn3cnnn3)ccc2O[C@@H]1CN(C)Cc1ccc(Oc2ccccc2)cc1 next?
8.72

Can you handle O=C(C[C@@H]1C[C@H]2c3cc(NC(=O)CC4CC4)ccc3O[C@H]2[C@H](CO)O1)NCc1ccccc1F next?
-23.9

Can you handle CN(C)C(=O)c1cccc(-c2ccc(C3[C@@H]4CN(Cc5nccs5)C[C@H]3N4)cc2)c1 (stereo not given in full) next?
-4.24
